- experimental details: Thiol reactivity of compound assessed as kinetic rate constant by LC-MS analysis
- Format: physicochemical
Measured K values are reported for all entries that follow.
Just the number please, in h⁻¹, no unit attached.

Q) Give K for the following compound: CC(Cl)C(=O)Nc1cc(C(F)(F)F)cc(C(F)(F)F)c1 (centres undefined)
A) 0.002

Q) Supply K value. Item: NC(=O)/C=C/c1cc(C(F)(F)F)cc(C(F)(F)F)c1
A) 0.002

###

- experimental details: Thiol reactivity of compound assessed as half life by LC-MS analysis
- Assay type: physicochemical
property measured: half-life (h)
# output: bare number, implied unit h

Q) Give a short answer stating reported half-life for C#CC(=O)Oc1cc(C(F)(F)F)cc(C(F)(F)F)c1 .
A) 31.6

Q) Report measured half-life; entry is FC(F)(F)c1cc(S)cc(C(F)(F)F)c1
A) 31.7

###

- experimental details: Thiol reactivity of compound assessed as kinetic rate constant by LC-MS analysis
- Format: physicochemical
property measured: K (h⁻¹)
Note: unit h⁻¹ is implicit; provide only the numeric part.

Below are worked cases with known answers.
* N#C/C=C/c1cc(C(F)(F)F)cc(C(F)(F)F)c1 | 0.175
* O=Cc1cc(C(F)(F)F)cc(C(F)(F)F)c1 | 0.001
* C=Cc1cc(C(F)(F)F)cc(C(F)(F)F)c1 | 0.004

We next turn to a different molecule, shown below.
Q) Indicate the recorded K value for this molecule: C#CC(=O)Oc1cc(C(F)(F)F)cc(C(F)(F)F)c1
A) 0.022

###

Each entry below lists one item and its recorded half-life value.
- experimental details: Thiol reactivity of compound assessed as half life by LC-MS analysis
- Format: physicochemical

Q) Please indicate half-life recorded for CC(Br)C(=O)Nc1cc(C(F)(F)F)cc(C(F)(F)F)c1 (stereo not drawn)
A) > 3 days

Q) Give reported half-life value for CC(C)(C)OC(=O)N/N=C\c1cc(C(F)(F)F)cc(C(F)(F)F)c1
A) > 3 days

Q) Input FC(F)(F)c1cc(CN=C=S)cc(C(F)(F)F)c1 , output reported half-life.
A) < 0.00208 days

###

- experimental details: Thiol reactivity of compound assessed as kinetic rate constant by LC-MS analysis
- Type: physicochemical
Collected K values appear next to each entry.

• FC(F)(F)c1cc(N=C=S)cc(C(F)(F)F)c1 = > 13.863 h⁻¹

Q) Return reported K. Input molecule: FC(F)(F)c1cc(CN=C=S)cc(C(F)(F)F)c1
A) > 13.863 h⁻¹
